- tgt: Liver GK (Homo sapiens)
- Construct: (His)6
- Sequence (P35557 1-466 isoform P35557-2): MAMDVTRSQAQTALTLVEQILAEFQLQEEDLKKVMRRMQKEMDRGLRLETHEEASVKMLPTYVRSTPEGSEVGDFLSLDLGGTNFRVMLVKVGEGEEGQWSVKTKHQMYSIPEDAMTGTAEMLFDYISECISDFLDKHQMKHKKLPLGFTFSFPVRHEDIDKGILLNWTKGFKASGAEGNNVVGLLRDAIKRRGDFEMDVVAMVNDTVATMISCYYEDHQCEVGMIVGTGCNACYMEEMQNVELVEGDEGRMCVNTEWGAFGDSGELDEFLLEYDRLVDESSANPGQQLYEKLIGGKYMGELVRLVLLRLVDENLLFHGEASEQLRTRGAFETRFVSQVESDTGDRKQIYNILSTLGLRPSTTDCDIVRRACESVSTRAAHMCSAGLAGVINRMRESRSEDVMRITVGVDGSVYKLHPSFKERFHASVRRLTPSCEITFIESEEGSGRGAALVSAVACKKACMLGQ
- assay.explanation: Glucokinase enzyme assay, liver GK
- measurement.setup: concentration that produces 50% activation above the vehicle control
measurement.type: EC50 (µM)

# count of solved cases: 5
| compound | measurement.type | quantity.unit | recorded.measurement |
| --- | --- | --- | --- |
| COc1ccc(CN2C(=O)C(C)=C(C)C2SCC(=O)Nc2cnccn2)cc1 (stereo not drawn) | EC50 | µM | 6.3 |
| CC1=C(C)C(SCC(=O)Nc2ccccn2)N(Cc2ccc3c(c2)CCO3)C1=O (stereo not drawn) | EC50 | µM | 2.78 |
| CCc1ccc(CN2C(=O)C(C)=C(C)C2SCC(=O)Nc2ccccn2)cc1 (stereo not drawn) | EC50 | µM | 15.3 |
| COc1ccc(CN2C(=O)C=C(C)C2SCC(=O)Nc2ccccn2)cc1 (stereo not drawn) | EC50 | µM | 13.8 |
| COc1ccc(CN2C(=O)C(C)=C(C)C2SCC(=O)Nc2ccccn2)c(OC)c1 (stereo not drawn) | EC50 | µM | 12.2 |

a = COc1cc(CN2C(=O)C(C)=C(C)C2SCC(=O)Nc2ccccn2)cc(OC)c1 (stereo not drawn)
b = COc1ccc(CN2C(=O)C(C)=C(C)C2SCC(=O)Nc2ccc(Cl)cn2)cc1 (stereo not drawn)
Query: From the recorded data, which exceeds the other in EC50: a or b ? Your choice should be expressed through its label.
Result: a
(a: 7.7 µM, b: 2.72 µM)

1 = COc1ccc(CN2C(=O)C(C)=C(C)C2SCC(=O)Nc2cccc(C)n2)cc1 (stereo not drawn)
2 = COc1ccc(CN2C(=O)C(C)=C(C)C2SCC(=O)Nc2ccc(C(N)=O)cn2)cc1 (stereo not drawn)
Query: From the recorded data, which exceeds the other in EC50: 1 or 2 ? Your choice should be expressed through its label.
Result: 1
(1: 6.23 µM, 2: 1.13 µM)

P = CC1=C(C)C(SCC(=O)Nc2ccccn2)N(Cc2ccc(C(C)C)cc2)C1=O (stereo not drawn)
Q = COc1ccc(CN2C(=O)C(C)=CC2SCC(=O)Nc2ccccn2)cc1 (stereo not drawn)
Query: From the recorded data, which exceeds the other in EC50: P or Q ? Your choice should be expressed through its label.
Result: Q

---

- tgt: Pancreas GK (Homo sapiens, UniProt P35557)
- Construct: (His)6; made in house; host or cells: Escherichia coli
- assay.explanation: Glucokinase enzyme assay, pancreas GK
- Type: biochemical
- measurement.setup: concentration that produces 100% activation above the vehicle control
measurement.type: EC100% (µM)

# count of solved cases: 4
| compound | measurement.type | quantity.unit | recorded.measurement |
| --- | --- | --- | --- |
| CC1=C(C)C(SCC(=O)Nc2ccccn2)N(Cc2cccs2)C1=O (centres unmarked) | EC100% | µM | 37.3 |
| COc1ccc(CN2C(=O)C=C(C)C2SCC(=O)Nc2ccccn2)cc1 (centres unmarked) | EC100% | µM | 47.3 |
| COC(=O)c1ccc(NC(=O)CSC2C(C)=C(C)C(=O)N2Cc2ccc(OC)c(OC)c2)nc1 (centres unmarked) | EC100% | µM | 5.3 |
| CC1=C(C)C(SCC(=O)Nc2ccccn2)N(Cc2ccc(C(C)C)cc2)C1=O (centres unmarked) | EC100% | µM | 44.9 |

1 = CC1=C(C)C(SCC(=O)Nc2ccccn2)N(Cc2ccc3c(c2)CCO3)C1=O (centres unmarked)
2 = COC(=O)c1ccc(NC(=O)CSC2C(C)=C(C)C(=O)N2Cc2ccc3c(c2)CCO3)nc1 (centres unmarked)
Query: # query: argmin of EC100% over 1 and 2 Your choice should be expressed through its label.
Result: 2

1 = COC(=O)c1ccc(NC(=O)CSC2C(C)=C(C)C(=O)N2Cc2cccs2)nc1 (centres unmarked)
2 = COC(=O)c1ccc(NC(=O)CSC2C(C)=C(C)C(=O)N2Cc2ccc(OC(F)F)cc2)nc1 (centres unmarked)
Query: # query: argmin of EC100% over 1 and 2 Your choice should be expressed through its label.
Result: 1
(1: 8.9 µM, 2: 18 µM)

---

- tgt: Liver GK (Homo sapiens)
- Construct: (His)6; made in house; host or cells: Escherichia coli
- assay.explanation: Glucokinase enzyme assay, liver GK
- Format: biochemical
- measurement.setup: percentage increase in GK activity above vehicle control, compound 50 μM, 12 mM glucose
measurement.type: activation at 50 µM (%)

# count of solved cases: 6
| molecule | activation at 50 µM / % |
| --- | --- |
| CC1=C(C)C(SCC(=O)Nc2ccccn2)N(Cc2ccc(OC(F)F)cc2)C1=O (centres unmarked) [Compound 16] | 166 |
| COc1ccc(CN2C(=O)C(C)=C(C)C2SCC(=O)Nc2ccc(C)cn2)cc1 (centres unmarked) [Compound 9] | 215 |
| CCc1ccc(CN2C(=O)C(C)=C(C)C2SCC(=O)Nc2ccccn2)cc1 (centres unmarked) [Compound 26] | 154 |
| COc1ccc(CN2C(=O)C(C)=C(C)C2SCC(=O)Nc2ccc(Cl)cn2)cc1 (centres unmarked) [Compound 8] | 169 |
| COc1ccc(CN2C(=O)C(C)=C(C)C2SCC(=O)Nc2ccccn2)cc1OC (centres unmarked) [Compound 11] | 243 |
| CCc1ccnc(NC(=O)CSC2C(C)=C(C)C(=O)N2Cc2ccc(OC)cc2)c1 (centres unmarked) [Compound 22] | 82 |

1 = CCOC(=O)Cc1csc(NC(=O)CSC2C(C)=C(C)C(=O)N2Cc2ccc(OC)cc2)n1 (centres unmarked) [Compound 7]
2 = COc1ccc(CN2C(=O)C(C)=C(C)[C@H]2S[C@H](C)C(=O)Nc2ccccn2)cc1 (stereo in doubt) [Compound 32]
Query: # query: argmin of activation at 50 µM over 1 and 2 Your choice should be expressed through its label.
Result: 2
(2: 37%, 1: 114%)

---

- tgt: Pancreas GK (Homo sapiens, UniProt P35557)
- Construct: (His)6; made in house; host or cells: Escherichia coli
- Sequence (P35557 1-465): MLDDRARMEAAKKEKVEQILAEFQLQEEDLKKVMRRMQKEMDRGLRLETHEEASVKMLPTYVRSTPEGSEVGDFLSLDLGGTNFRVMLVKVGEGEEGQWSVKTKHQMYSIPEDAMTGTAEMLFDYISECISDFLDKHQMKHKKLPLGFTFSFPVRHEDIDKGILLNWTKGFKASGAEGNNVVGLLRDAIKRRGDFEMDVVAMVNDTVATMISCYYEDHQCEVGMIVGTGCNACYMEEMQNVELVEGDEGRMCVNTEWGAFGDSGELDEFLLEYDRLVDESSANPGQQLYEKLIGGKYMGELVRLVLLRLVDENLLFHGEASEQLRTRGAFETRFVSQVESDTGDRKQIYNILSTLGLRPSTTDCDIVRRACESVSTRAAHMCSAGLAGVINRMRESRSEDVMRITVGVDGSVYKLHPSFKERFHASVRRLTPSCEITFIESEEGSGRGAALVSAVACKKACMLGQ
- assay.explanation: Glucokinase enzyme assay, pancreas GK
- Type: biochemical
- measurement.setup: percentage increase in GK activity above vehicle control, compound 50 μM, 12 mM glucose
measurement.type: activation at 50 µM (%)

# count of solved cases: 3
| molecule | recorded.measurement |
| --- | --- |
| CCc1ccnc(NC(=O)CSC2C(C)=C(C)C(=O)N2Cc2ccc(OC)cc2)c1 (centres unmarked) | 70 |
| CC1=C(C)C(SCC(=O)Nc2ccccn2)N(Cc2cccs2)C1=O (centres unmarked) | 124 |
| CC1=C(C)C(SCC(=O)Nc2ccccn2)N(Cc2ccc(N(C)C)cc2)C1=O (centres unmarked) | 163 |

a = COC(=O)c1ccc(NC(=O)CSC2C(C)=C(C)C(=O)N2Cc2ccc(OC)cc2)nc1 (centres unmarked)
b = CCc1ccc(CN2C(=O)C(C)=C(C)C2SCC(=O)Nc2ccccn2)cc1 (centres unmarked)
Query: From the recorded data, which exceeds the other in activation at 50 µM: a or b ? Your choice should be expressed through its label.
Result: a
